- Tested on: Fibroblast
- ASSAY_PROCEDURE: Multiplex assay against human fibroblast
- Format: toxicity, cell-based
- PARTICULARS: 48 h, 10 µM, compound concentration 10 uM, replicate 2
MEASURED_PROPERTY: Population Apoptotic (%)

[[record]]
compound = "N#Cc1cc(F)cc(-c2nc(-c3ccc(F)cn3)no2)c1"
measured_property = "Population Apoptotic (%)"
experimental_result = 50

[[record]]
compound = "CC(C)(C)c1cc(NC(=O)Nc2ccc(-c3cn4c(n3)sc3cc(OCCN5CCOCC5)ccc34)cc2)no1"
measured_property = "Population Apoptotic (%)"
experimental_result = 60

[[record]]
compound = "O=C(NCCN1CCC(n2c(=O)[nH]c3cc(Cl)ccc32)CC1)c1ccc(F)cc1 [HALOPEMIDE]"
measured_property = "Population Apoptotic (%)"
experimental_result = 48

[[record]]
compound = "CCCCC1=NC2(CCCC2)C(=O)N1Cc1ccc(-c2ccccc2-c2nnn[nH]2)cc1"
measured_property = "Population Apoptotic (%)"
experimental_result = 37

[[record]]
compound = "CCCCCC(O)/C=C/[C@H]1C(=O)CC(O)C1C/C=C\\CCCC(=O)O (some centres undefined)"
measured_property = "Population Apoptotic (%)"
experimental_result = 33

[[record]]
compound = "C[C@H](N)COC(=O)[C@@H](CCCCN)NC(=O)Cc1c(-c2ccc3ccccc3c2)[nH]c2c1ccc1ccccc12"
measured_property = "Population Apoptotic (%)"
experimental_result = 55

[[record]]
compound = "O=C(CCCc1ccccc1)Nc1nc2ccccc2c(=O)s1"
measured_property = "Population Apoptotic (%)"
experimental_result = 77

[[record]]
compound = "Br.CS(=O)(=O)Nc1c(O)ccc2c1CCCC2C1=NCCN1 (centres undefined)"
measured_property = "Population Apoptotic (%)"
experimental_result = 33

[[record]]
compound = "COc1ccccc1N1CCN(C[C@@H](C(=O)NC(C)(C)C)c2ccccc2)CC1.Cl.Cl"
measured_property = "Population Apoptotic (%)"
experimental_result = 44

[[record]]
compound = "CN1CCN(c2cc(-c3ccccc3)nc(N)n2)CC1"
measured_property = "Population Apoptotic (%)"
experimental_result = 66

[[record]]
compound = "Cc1cnc(-c2cc(N3CCN(C(=O)CCS(C)(=O)=O)CC3)ncc2Cl)c(C)c1"
measured_property = "Population Apoptotic (%)"
experimental_result = 75

[[record]]
compound = "Cc1c(CC(=O)O)c2cccnc2n1Cc1ccc(S(C)(=O)=O)cc1C(F)(F)F"
measured_property = "Population Apoptotic (%)"
experimental_result = 58

[[record]]
compound = "O=C1[C@H](Cc2ccc(O)cc2)N2C(=O)CCN(C(=O)NCc3ccccc3)[C@H]2CN1Cc1cccc2ccccc12"
measured_property = "Population Apoptotic (%)"
experimental_result = 66

[[record]]
compound = "CC(=O)Nc1cccc2c1c(Sc1ccc(Cl)cc1)c(C)n2CC(=O)O"
measured_property = "Population Apoptotic (%)"
experimental_result = 40

[[record]]
compound = "Cc1onc(-c2ccccc2Cl)c1C(=O)N(C)c1ccc(Cl)cc1"
measured_property = "Population Apoptotic (%)"
experimental_result = 65

[[record]]
compound = "COc1cccc2c1c(NS(=O)(=O)c1ccc(Cl)s1)nn2Cc1cccc(CNC(=O)C(C)(C)O)c1"
measured_property = "Population Apoptotic (%)"
experimental_result = 51

[[record]]
compound = "N#Cc1c(Oc2cccc(OS(=O)(=O)CCCC(F)(F)F)c2)cccc1C(F)(F)F"
measured_property = "Population Apoptotic (%)"
experimental_result = 59

[[record]]
compound = "CN(C)C(=O)Cn1cc(-c2ccc(-c3cncc4ccccc34)cc2)cn1"
measured_property = "Population Apoptotic (%)"
experimental_result = 12

[[record]]
compound = "Cl.NCCc1ccc(O)c(O)c1 [DOPAMINE HYDROCHLORIDE]"
measured_property = "Population Apoptotic (%)"
experimental_result = 90

